# MEASUREMENT DESCRIPTION: Phase 1 single ascending dose (SAD) clinical trial: pharmacokinetics, safety and tolerability
# Format: in vivo, human
# EXPERIMENTAL SETUP: both sexes, human, in vivo; 75 mg single oral dose, after high-fat breakfast
QUANTITY MEASURED: Cmax (ng/mL)
Write the number in ng/mL without appending the unit.

Recorded result, `[2H]C([2H])([2H])C(c1cc(C(C)(C)C)c(NC(=O)c2c[nH]c3ccccc3c2=O)cc1O)(C([2H])([2H])[2H])C([2H])([2H])[2H]` , Cmax: 838
